Items are presented alongside their recorded pIC50.
- Assayed System: HIV-2 reverse transcriptase (Human immunodeficiency virus 2)
- Experiment Notes: Compound was evaluated for inhibition of HIV-2 reverse transcriptase using rC.dG and [3H]-dGTP as substrates at 100 ug/mL
To interpret pIC50, take it as minus log10 of a concentration measured in moles per litre.

Solved entries:
Structure Notation: O=C(CCCCC(=O)Nc1ccc(Br)cc1C(=O)O)Nc1ccc(Br)cc1
Assayed System: HIV-2 reverse transcriptase (Human immunodeficiency virus 2)
pIC50: 4.49

Structure Notation: Cc1ccc(NC(=O)CCCCC(=O)Nc2ccc(C)cc2C(=O)O)c(C(=O)O)c1
Assayed System: HIV-2 reverse transcriptase (Human immunodeficiency virus 2)
pIC50: 5.04

Structure Notation: O=C(CCCCC(=O)Nc1ccccc1C(=O)O)Nc1ccccc1C(=O)O
Assayed System: HIV-2 reverse transcriptase (Human immunodeficiency virus 2)
pIC50: 5.05

Exercise: Looking for the measured pIC50 of O=C(Nc1ccc(Br)cc1C(=O)O)c1ccc(C(=O)Nc2ccc(Br)cc2C(=O)O)nc1 , can you help?
Solution: 5.26
